Hey, just so you know, these numbers are from patent US10988496B2.

# IC50 per record follows
system: gastric cancer cells MKN-74; experiment: In vitro antitumor assay (Methylene Blue staining), MKN-74; format: cell-based; settings: 72 hours culture with compound; read-out: Cell line IC50 MKN-74

{"Compound": "N[C@@H]1CCCC[C@H]1N.O=C1[O][Pt]([OH])([Cl])[O]C(=O)C12CCC2 (mixture of isomers)", "IC50": "29 µM"}
{"Compound": "N[C@@H]1CCCC[C@H]1N.[OH][Pt]([Cl])([Cl])[Cl] (mixture of isomers)", "IC50": "17.1 µM"}
{"Compound": "N[C@@H]1CCCC[C@H]1N.O=C1[O][Pt]([OH])([OH])[O]C1=O (mixture of isomers) [Comparative Example 3, trans,cis,cis-[Pt(OH)2 (R,R-dach) (ox)]]", "IC50": "> 100 µM"}
{"Compound": "N[C@@H]1CCCC[C@H]1N.O=C([O-])C(=O)[O-].[Cl-].[OH-].[Pt+4] (mixture of isomers) [Example 1, trans,cis,cis-[PtCl(OH) (R,R-dach) (ox)]]", "IC50": "16 µM"}
{"Compound": "N[C@@H]1CCCC[C@H]1N.O=C(CCc1ccccc1)[O][Pt]1([O]C(=O)CCc2ccccc2)[O]C(=O)C(=O)[O]1", "IC50": "27.3 µM"}
{"Compound": "N[C@@H]1CCCC[C@H]1N.O=C([O-])C(=O)[O-].[Pt+2]", "IC50": "8.6 µM"}

###

# pIC50 per record follows
tested on: gastric cancer cells MKN-45; assay: In vitro antitumor assay (Methylene Blue staining), MKN-45; format: cell-based; details: 72 hours culture with compound; read-out: Cell line IC50 MKN-45
pIC50: −log10 of the molar value.

{"Compound": "N[C@@H]1CCCC[C@H]1N.O=C1[O][Pt]([Cl])([O]CCO)[O]C1=O (mixture of isomers)", "Study target": "gastric cancer cells MKN-45", "pIC50": 5.72}
{"Compound": "NC1CCCCC1N.[Cl][Pt][Cl] (centres unmarked)", "Study target": "gastric cancer cells MKN-45", "pIC50": 6.30}
{"Compound": "N[C@@H]1CCCC[C@H]1N.O=C([O-])C(=O)[O-].[Pt+2]", "Study target": "gastric cancer cells MKN-45", "pIC50": 7.00}
{"Compound": "CC(=O)[O][Pt]1([OH])[O]C(=O)C(=O)[O]1.N[C@@H]1CCCC[C@H]1N (mixture of isomers)", "Study target": "gastric cancer cells MKN-45", "pIC50": 5.21}
{"Compound": "N[C@@H]1CCCC[C@H]1N.O=C([O-])C(=O)[O-].[Cl-].[OH-].[Pt+4] (mixture of isomers) [Example 1, trans,cis,cis-[PtCl(OH) (R,R-dach) (ox)]]", "Study target": "gastric cancer cells MKN-45", "pIC50": 6.52}

###

tested on: pancreatic cancer cells DAN-G; experiment: In vitro antitumor assay (Methylene Blue staining), DAN-G; format: cell-based; details: 72 hours culture with compound; read-out: Cell line IC50 DAN-G

{"Compound": "N[C@@H]1CCCC[C@H]1N.O=C1[O][Pt]([OH])([OH])[O]C1=O (mixture of isomers) [Comparative Example 3, trans,cis,cis-[Pt(OH)2 (R,R-dach) (ox)]]", "Qual": ">", "IC50 / µM": 100}
{"Compound": "N[C@@H]1CCCC[C@H]1N.O=C(CCc1ccccc1)[O][Pt]1([O]C(=O)CCc2ccccc2)[O]C(=O)C(=O)[O]1", "Qual": "=", "IC50 / µM": 6.8}
{"Compound": "CC(=O)[O][Pt]1([OH])[O]C(=O)C(=O)[O]1.N[C@@H]1CCCC[C@H]1N (mixture of isomers)", "Qual": "=", "IC50 / µM": 36.7}
{"Compound": "N[C@@H]1CCCC[C@H]1N.O=C1[O][Pt]([OH])([Cl])[O]C(=O)C12CCC2 (mixture of isomers)", "Qual": "=", "IC50 / µM": 3.4}
{"Compound": "N[C@@H]1CCCC[C@H]1N.O=C([O-])C(=O)[O-].[Pt+2]", "Qual": "=", "IC50 / µM": 1.1}
{"Compound": "N[C@@H]1CCCC[C@H]1N.O=C1[O][Pt]([OH])([OH])[O]C(=O)C12CCC2 (mixture of isomers) [Comparative Example 6, trans,cis,cis-[Pt(OH)2(R,R-dach) (cbdc)]]", "Qual": ">", "IC50 / µM": 100}
{"Compound": "N[C@@H]1CCCC[C@H]1N.O=C([O-])C(=O)[O-].[Cl-].[OH-].[Pt+4] (mixture of isomers) [Example 1, trans,cis,cis-[PtCl(OH) (R,R-dach) (ox)]]", "Qual": "=", "IC50 / µM": 1}
{"Compound": "NC1CCCCC1N.[Cl][Pt][Cl] (stereo not shown)", "Qual": "=", "IC50 / µM": 8.5}
{"Compound": "N[C@@H]1CCCC[C@H]1N.O=C1[O][Pt]([Cl])([O]CCO)[O]C1=O (mixture of isomers)", "Qual": "=", "IC50 / µM": 5.6}
{"Compound": "N[C@@H]1CCCC[C@H]1N.[OH][Pt]([Cl])([Cl])[Cl] (mixture of isomers)", "Qual": "=", "IC50 / µM": 8.6}

###

tested on: gastric cancer cells MKN-74; experiment: In vitro antitumor assay (Methylene Blue staining), MKN-74; assay type: cell-based; settings: 72 hours culture with compound; read-out: Cell line IC50 MKN-74
Value kind: IC50 (µM)

{"Compound": "NC1CCCCC1N.[Cl][Pt][Cl] (stereo not shown) [Pt(dach)Cl2]", "Unit of measurement": "µM", "Qual": "=", "Quantitative readout": 22.3}
{"Compound": "N[C@@H]1CCCC[C@H]1N.O=C1[O][Pt]([OH])([OH])[O]C(=O)C12CCC2 (mixture of isomers) [Comparative Example 6, trans,cis,cis-[Pt(OH)2(R,R-dach) (cbdc)]]", "Unit of measurement": "µM", "Qual": ">", "Quantitative readout": 100}
{"Compound": "N[C@@H]1CCCC[C@H]1N.O=C1[O][Pt]([Cl])([O]CCO)[O]C1=O (mixture of isomers) [Comparative Example 2]", "Unit of measurement": "µM", "Qual": "=", "Quantitative readout": 58.1}
{"Compound": "CC(=O)[O][Pt]1([OH])[O]C(=O)C(=O)[O]1.N[C@@H]1CCCC[C@H]1N (mixture of isomers) [Comparative Example 1]", "Unit of measurement": "µM", "Qual": ">", "Quantitative readout": 100}
